Target: GABA-A receptor; anion channel
Assay: The concentration required to inhibit 50% of binding of [35S]TBPS to Gamma-aminobutyric acid A receptor to rat whole brain membranes.
Assay type: cell membranes
pIC50: −log10 of the molar value.
Entries annotated with measured pIC50

structure notation: CC(=O)[C@H]1CC[C@H]2[C@@H]3CC[C@H]4C[C@H](O)[C@@H](N5CCSCC5)C[C@]4(C)[C@H]3C(=O)C[C@]12C
system name: GABA-A receptor; anion channel
pIC50: 5.86

structure notation: C[C@]12C[C@H](N3CCOCC3)[C@@H](O)C[C@@H]1CC[C@@H]1[C@@H]2CC[C@]2(C)[C@@H](C(=O)CO)CC[C@@H]12
system name: GABA-A receptor; anion channel
pIC50: 5.52

structure notation: C[C@]12C[C@H](N3CCOCC3)[C@@H](O)C[C@@H]1CC[C@H]1[C@@H]3CC[C@H](C(=O)CO)[C@@]3(C)CC(=O)[C@@H]12
system name: GABA-A receptor; anion channel
pIC50: 5.94

structure notation: CCC1(CC)CN([C@H]2C[C@@]3(C)[C@@H](CC[C@H]4[C@@H]5CC[C@H](C(C)=O)[C@@]5(C)CC(=O)[C@@H]43)C[C@@H]2O)CCO1
system name: GABA-A receptor; anion channel
pIC50: 7.10

structure notation: CC(=O)[C@H]1CC[C@H]2[C@@H]3CC[C@H]4C[C@H](O)[C@@H](N5CCO[C@H](Cc6ccccc6)C5)C[C@]4(C)[C@H]3C(=O)C[C@]12C
system name: GABA-A receptor; anion channel
pIC50: 6.88

structure notation: CC(=O)SCC(=O)[C@H]1CC[C@H]2[C@@H]3CC[C@H]4C[C@H](O)[C@@H](N5CCOCC5)C[C@]4(C)[C@H]3CC[C@]12C
system name: GABA-A receptor; anion channel
pIC50: 6.63

structure notation: CC(=O)[C@H]1CC[C@H]2[C@@H]3CC[C@H]4C[C@H](O)[C@@H](N5CCSC(C)(C)C5)C[C@]4(C)[C@H]3C(=O)C[C@]12C
system name: GABA-A receptor; anion channel
pIC50: 6.68

structure notation: CC[C@H]1CN([C@H]2C[C@@]3(C)[C@@H](CC[C@H]4[C@@H]5CC[C@H](C(C)=O)[C@@]5(C)CC(=O)[C@@H]43)C[C@@H]2O)CCO1
system name: GABA-A receptor; anion channel
pIC50: 5.83

structure notation: CC(=O)[C@H]1CC[C@H]2[C@@H]3CC[C@H]4C[C@H](O)[C@@H](N5CCOC(c6ccccc6)(c6ccccc6)C5)C[C@]4(C)[C@H]3C(=O)C[C@]12C
system name: GABA-A receptor; anion channel
pIC50: 6.30

structure notation: C[C@]12C[C@H](N3CCOCC3)[C@@H](O)C[C@@H]1CC[C@@H]1[C@@H]2CC[C@]2(C)[C@@H](C(=O)CCl)CC[C@@H]12
system name: GABA-A receptor; anion channel
pIC50: 6.77

structure notation: CC(=O)[C@H]1CC[C@H]2[C@@H]3CC[C@H]4C[C@H](O)[C@@H](N5C[C@@H](C)O[C@@H](C)C5)C[C@]4(C)[C@H]3C(=O)C[C@]12C
system name: GABA-A receptor; anion channel
pIC50: 5.50
